test: Prodrug in vivo pharmacokinetics in monkeys (plasma, LC-MS-MS); set-up: species or system Monkey (Cynomolgus); settings: Cynomolgus, cynomolgus monkey, plasma, po, 10 mg/kg, Example 4 in monkey plasma after oral Example 4 (10 mg/kg active); Monkey 3
parameter_measured: Tmax (min)
Answers are plain numbers, in min.

*Q* Quick one: Tmax for `N[C@H]1Cc2ccccc2N(O)C1=O` ?
*A* 30

###

assay: Prodrug in vivo pharmacokinetics in dogs (plasma, LC-MS-MS); design: species or system Dog (Beagle); settings: Beagle, dog, plasma, po, 1 mg/kg, Example 72 in dog plasma after oral Example 72 (1 mg/kg active); Mean; read-out: AUC Extrap
parameter_measured: AUC (ng·h/mL)
Give bare numbers, in ng·h/mL.

*Q* I am curious: what AUC value has been reported for `CN(C)C(=O)ON1C(=O)[C@@H](N)Cc2cc(Oc3ccccc3)ccc21` ?
*A* 623

###

assay: Prodrug in vivo pharmacokinetics in monkeys (plasma, LC-MS-MS); parameters: species or system Monkey (Cynomolgus); details: Cynomolgus, cynomolgus monkey, plasma, po, 3 mg/kg, Example 71 in monkey plasma after oral Example 71 (3 mg/kg active); Mean
parameter_measured: Tmax (min)
Give bare numbers, in min.

*Q* Bench note: what Tmax did Cl.N[C@H]1Cc2cc(Oc3ccccc3)ccc2N(O)C1=O [Example 71] show?
*A* 22.8

###

Assay: Prodrug in vivo pharmacokinetics in dogs (plasma, LC-MS-MS)
Set-up: species or system Dog (Beagle)
Details: Beagle, dog, plasma, po, 1 mg/kg, Example 72 in dog plasma after oral Example 72 (1 mg/kg active); Dog 2; read-out: AUC Extrap
Protocol: Test substances (Examples 4 and 71-73) were administered by oral gavage to groups of two dogs. Example 71 was also administered intravenously. Blood samples were taken at various times after administration and submitted to analysis for the parent drug (Example 71) and pro-drug (Examples 72 and 73) using an LC-MS-MS assay. Pharmacokinetic parameters derived from the plasma analytical data were determined using Watson LIMS 7.2.003 (Thermo Fisher Scientific, Waltham, Mass.). […]
parameter_measured: AUC (ng·h/mL)
One number for each entry, in ng·h/mL.

*Q* Fill in the blank: the reported AUC of `CN(C)C(=O)ON1C(=O)[C@@H](N)Cc2cc(Oc3ccccc3)ccc21` is ____.
*A* 790

###

assay: Prodrug in vivo pharmacokinetics in dogs (plasma, LC-MS-MS); parameters: species or system Dog (Beagle); details: Beagle, dog, plasma, po, 2 mg/kg, Example 71 in dog plasma after oral Example 71 (2 mg/kg active); Dog 1; read-out: AUC
parameter_measured: AUC (ng·h/mL)
One number for each entry, in ng·h/mL.

*Q* Reported AUC, molecule `Cl.N[C@H]1Cc2cc(Oc3ccccc3)ccc2N(O)C1=O` : ____
*A* 10.3

###

assay: Prodrug in vivo pharmacokinetics in dogs (plasma, LC-MS-MS); set-up: species or system Dog (Beagle); settings: Beagle, dog, plasma, po, 2 mg/kg, Example 71 in dog plasma after oral Example 71 (2 mg/kg active); Mean; read-out: AUC Extrap
parameter_measured: AUC (ng·h/mL)
One number for each entry, in ng·h/mL.

*Q* Param item = Cl.N[C@H]1Cc2cc(Oc3ccccc3)ccc2N(O)C1=O [Example 71] ; retrieve measured AUC.
*A* 11.6

###

assay: Prodrug in vivo pharmacokinetics in dogs (plasma, LC-MS-MS); parameters: species or system Dog (Beagle); conditions: Beagle, dog, plasma, po, 1 mg/kg, Example 72 in dog plasma after oral Example 72 (1 mg/kg active); Dog 1; read-out: AUC
parameter_measured: AUC (ng·h/mL)
One number for each entry, in ng·h/mL.

*Q* Any idea what its AUC is? The compound is `CN(C)C(=O)ON1C(=O)[C@@H](N)Cc2cc(Oc3ccccc3)ccc21`
*A* 402

###

test: Prodrug in vivo pharmacokinetics in monkeys (plasma, LC-MS-MS); set-up: species or system Monkey (Cynomolgus); settings: Cynomolgus, cynomolgus monkey, plasma, po, 3 mg/kg, Example 71 in monkey plasma after oral Example 71 (3 mg/kg active); Monkey 2
parameter_measured: Cmax (ng/mL)
One number for each entry, in ng/mL.

*Q* Name the reported Cmax value associated with the compound `Cl.N[C@H]1Cc2cc(Oc3ccccc3)ccc2N(O)C1=O`
*A* 62.8

###

test: Prodrug in vivo pharmacokinetics in dogs (plasma, LC-MS-MS); set-up: species or system Dog (Beagle); details: Beagle, dog, plasma, po, 2 mg/kg, Example 71 in dog plasma after oral Example 71 (2 mg/kg active); Dog 1
parameter_measured: Tmax (min)
Numbers only, in min.

*Q* Reported Tmax, compound `Cl.N[C@H]1Cc2cc(Oc3ccccc3)ccc2N(O)C1=O` : ____
*A* 15

###

assay: Prodrug in vivo pharmacokinetics in monkeys (plasma, LC-MS-MS); design: species or system Monkey (Cynomolgus); conditions: Cynomolgus, cynomolgus monkey, plasma, po, 10 mg/kg, Example 4 in monkey plasma after oral Example 4 (10 mg/kg active); Monkey 1; read-out: AUC Extrap
parameter_measured: AUC (ng·h/mL)
Give bare numbers, in ng·h/mL.

*Q* Look up AUC for this compound: `N[C@H]1Cc2ccccc2N(O)C1=O`
*A* 188

###

target: human KAT II (hKAT II) enzyme (Homo sapiens, UniProt Q8N5Z0); experiment: KAT II Inhibition Spectra Assay; format: biochemical; conditions: Table 6; hKAT II, decrease in OD370, 37° C., 15-20 h; read-out: KATII IC50
Sequence (Q8N5Z0 30-425): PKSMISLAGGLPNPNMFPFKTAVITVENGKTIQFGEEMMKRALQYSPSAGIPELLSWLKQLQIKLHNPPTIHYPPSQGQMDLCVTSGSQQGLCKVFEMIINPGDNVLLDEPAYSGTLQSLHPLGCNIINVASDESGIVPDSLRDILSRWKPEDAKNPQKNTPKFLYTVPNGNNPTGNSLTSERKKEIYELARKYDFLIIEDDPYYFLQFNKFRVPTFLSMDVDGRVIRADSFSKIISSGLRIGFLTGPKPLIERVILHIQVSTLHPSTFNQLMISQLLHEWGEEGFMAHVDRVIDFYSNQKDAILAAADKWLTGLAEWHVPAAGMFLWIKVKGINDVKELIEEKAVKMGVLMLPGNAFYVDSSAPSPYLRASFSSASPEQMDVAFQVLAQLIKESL
Where a name gives a salt, the structure may show the parent alone.
So I've got a bunch of molecules here, and I need their IC50 values.
Give bare numbers, in nM.

N[C@H]1Cc2cc(-c3cccc(F)c3)ccc2N(O)C1=O [Example 139, trifluoroacetate salt]	66.1
N[C@H]1Cc2cc(F)cc(F)c2N(O)C1=O	61.9
N[C@H]1Cc2cc(-c3ccccc3Cl)ccc2N(O)C1=O [Example 154, trifluoroacetate salt]	96.5
NC1Cc2cc(Oc3ccc(C(F)(F)F)cc3)ccc2N(O)C1=O (centres unmarked)	68.6
N[C@H]1Cc2cccc(CN3CCOCC3)c2N(O)C1=O [Example 74, trifluoroacetic acid salt]	151
N[C@H]1Cc2cccc(Oc3ccccc3)c2N(O)C1=O	80.1
N[C@H]1Cc2cc(Oc3cc(F)ccc3F)ccc2N(O)C1=O [Example 157, trifluoroacetate salt]	68.5

Shift focus to the following entry.
*Q* Bench note: what IC50 did N[C@H]1Cc2cc(-c3ccccc3OC(F)(F)F)ccc2N(O)C1=O [Example 132, trifluoroacetate salt] show?
*A* 121

###

molecular target: human KAT II (hKAT II) enzyme (Homo sapiens); test: KAT II Inhibition Spectra Assay; format: biochemical; details: Table 6; hKAT II, decrease in OD370, 37° C., 15-20 h; read-out: KATII IC50
pIC50: −log10 of the molar value.
Label condition met when pIC50 is at or above 7; anything below gets condition not met.

*Q* Quick check, pIC50 >= 7? N#Cc1cccc(Oc2cnc3c(c2)C[C@H](N)C(=O)N3O)c1 [Example 129]
*A* condition met

*Q* Next up: N[C@H]1Cc2cccc(OCC(F)(F)F)c2N(O)C1=O [Example 96]
*A* condition met

*Q* Same thing, different compound: N[C@H]1Cc2c(F)ccc(Cl)c2N(O)C1=O [Example 109]
*A* condition not met

###

biological target: human KAT II (hKAT II) enzyme (Homo sapiens, UniProt Q8N5Z0); assay: KAT II Inhibition Spectra Assay; type: biochemical; conditions: Table 6; hKAT II, decrease in OD370, 37° C., 15-20 h; read-out: KATII IC50
Counter-ions that a name gives are not always drawn.
parameter_measured: pIC50
Answers are plain numbers, as −log10 of the molar value.

Check out these entries, answers already filled in.
CCOc1ccccc1-c1ccc2c(c1)C[C@H](N)C(=O)N2O [Example 141, trifluoroacetate salt]	6.55
COc1ccc(Oc2ccc3c(c2)CC(N)C(=O)N3O)cc1 (stereo not shown)	7.44

State recorded pIC50 for all listed compounds.
1. Cc1cccc(-c2ccc3c(c2)C[C@H](N)C(=O)N3O)c1 [Example 146, trifluoroacetate salt]
2. NC1Cc2cc(Oc3cccc(Cl)c3)ccc2N(O)C1=O (stereo not shown)
3. N[C@H]1Cc2cc(Oc3ccc(Cl)c(F)c3)ccc2N(O)C1=O [Example 167, trifluoroacetate salt]
4. N[C@H]1Cc2cccc(-c3cccnc3C(F)(F)F)c2N(O)C1=O

*A*
1. 7.10
2. 7.40
3. 6.98
4. 6.45

Please state pIC50 for every compound in the list that follows.
1. NC1Cc2cc(Oc3ccccn3)ccc2N(O)C1=O (stereo not shown)
2. NC1Cc2cc(Oc3ccncc3)ccc2N(O)C1=O (stereo not shown)
3. N[C@H]1Cc2cc(Cl)c(Cl)cc2N(O)C1=O
4. N[C@H]1Cc2cc(Oc3cc(F)cc(C(F)(F)F)c3)ccc2N(O)C1=O [Example 166, trifluoroacetate salt]
5. N[C@H]1Cc2cc(-c3ccccc3)ccc2N(O)C1=O [Example 150, trifluoroacetate salt]
6. COc1cccc(Oc2ccc3c(c2)C[C@H](N)C(=O)N3O)c1
7. N[C@H]1Cc2cc(-c3cc(F)ccc3Cl)ccc2N(O)C1=O [Example 152, trifluoroacetate salt]
8. COc1cc2c(cc1Cc1cccc(C(F)(F)F)c1)C[C@H](N)C(=O)N2O

*A*
1. 7.29
2. 6.99
3. 7.28
4. 6.89
5. 7.01
6. 7.76
7. 7.03
8. 7.40

Required: pIC50, one value per compound below.
1. NC1Cc2cc(Oc3cccc(C(F)(F)F)c3)ccc2N(O)C1=O (stereo not shown)
2. N[C@H]1Cc2c(ccc(Oc3ccccc3)c2F)N(O)C1=O

*A*
1. 7.45
2. 7.34
